assay: Pharmacokinetic study in rats after oral administration of FA decoction; assay type: in vivo, Sprague-Dawley rats; conditions: male, Sprague-Dawley; rat plasma, oral FA decoction 15 g/kg; n=8
endpoint: Tmax (h)
# unit: h | format: bare number

Would you please look over these solved cases?
COc1ccc([C@@H]2CC(=O)c3c(O)cc(O)cc3O2)cc1O [Hesperetin, hesperetin] | 1
COc1ccc2ccc(=O)oc2c1C[C@@H](O)C(C)(C)O [Meranzin hydrate, meranzin hydrate] | 1

Consider the additional compound presented here.
Fill in: Tmax of O=C1C[C@@H](c2ccc(O)cc2)Oc2cc(O)cc(O)c21 [Naringenin, naringenin] is ___
1.13

* * *

# key: entry, value: Stability in FA decoction, Content
assay: Stability of the analytical solution of FA decoction at environmental temperature; type: physicochemical; details: FA decoction 1.7 g/mL, 8h
Just the number in mg/mL, nothing appended.

As a guide, the following entries are already answered.
COc1ccc([C@@H]2CC(=O)c3c(O)cc(O[C@@H]4O[C@H](CO)[C@@H](O)[C@H](O)[C@H]4O[C@@H]4O[C@@H](C)[C@H](O)[C@@H](O)[C@H]4O)cc3O2)cc1O | 14.40
COc1ccc([C@@H]2CC(=O)c3c(O)cc(O)cc3O2)cc1O | 0.18
C[C@@H]1O[C@@H](O[C@H]2[C@H](Oc3cc(O)c4c(c3)O[C@H](c3ccc(O)cc3)CC4=O)O[C@H](CO)[C@@H](O)[C@@H]2O)[C@H](O)[C@H](O)[C@H]1O | 25.45

For the molecule shown here, "COc1ccc([C@@H]2CC(=O)c3c(O)cc(O[C@@H]4O[C@H](CO[C@@H]5O[C@@H](C)[C@H](O)[C@@H](O)[C@H]5O)[C@@H](O)[C@H](O)[C@H]4O)cc3O2)cc1O" , give the reported Stability in FA decoction, Content.
5.02

Field request: Stability in FA decoction, Content | item: COc1ccc2ccc(=O)oc2c1C[C@@H](O)C(C)(C)O [Meranzin hydrate, meranzin hydrate]
0.34

Find the recorded Stability in FA decoction, Content belonging to "O=C1C[C@@H](c2ccc(O)cc2)Oc2cc(O)cc(O)c21" and report it.
0.26
